Readings of MIC90 for the listed compounds
- Test system: Blautia luti
- assay-method-text: Antibacterial activity against Ruminococcus luti by CLSI M11-A6 agar dilution method
- Assay type: functional

compound	reading-unit	operator	MIC90
CCC[C@@H]1C[C@@H](C(=O)N[C@@H]([C@H]2O[C@H](SC)[C@H](O)[C@@H](O)[C@H]2O)[C@H](C)Cl)N(C)C1 [CLINDAMYCIN]	µg/mL	=	2
CCCCCCCCCCNCCN[C@@]1(C)C[C@H](O[C@H]2[C@H](Oc3c4cc5cc3Oc3ccc(cc3Cl)[C@@H](O)[C@@H](NC(=O)[C@@H](CC(C)C)NC)C(=O)N[C@@H](CC(N)=O)C(=O)N[C@H]5C(=O)N[C@H]3C(=O)N[C@H](C(=O)N[C@H](C(=O)O)c5cc(O)c(CNCP(=O)(O)O)c(O)c5-c5cc3ccc5O)[C@H](O)c3ccc(c(Cl)c3)O4)O[C@H](CO)[C@@H](O)[C@@H]2O)O[C@@H](C)[C@H]1O [TELAVANCIN]	µg/mL	≤	0.12
CCCCCCCCCC(=O)N[C@@H](Cc1c[nH]c2ccccc12)C(=O)N[C@H](CC(N)=O)C(=O)N[C@@H](CC(=O)O)C(=O)N[C@@H]1C(=O)NCC(=O)N[C@@H](CCCN)C(=O)N[C@@H](CC(=O)O)C(=O)N[C@H](C)C(=O)N[C@@H](CC(=O)O)C(=O)NCC(=O)N[C@H](CO)C(=O)N[C@@H]([C@H](C)CC(=O)O)C(=O)N[C@@H](CC(=O)c2ccccc2N)C(=O)O[C@@H]1C	µg/mL	=	2
Cc1ncc([N+](=O)[O-])n1CCO [METRONIDAZOLE]	µg/mL	=	0.25
CC(=O)NC[C@H]1CN(c2ccc(N3CCOCC3)c(F)c2)C(=O)O1 [LINEZOLID]	µg/mL	=	4
CN[C@H](CC(C)C)C(=O)N[C@H]1C(=O)N[C@@H](CC(N)=O)C(=O)N[C@H]2C(=O)N[C@H]3C(=O)N[C@H](C(=O)N[C@H](C(=O)O)c4cc(O)cc(O)c4-c4cc3ccc4O)[C@H](O)c3ccc(c(Cl)c3)Oc3cc2cc(c3O[C@@H]2O[C@H](CO)[C@@H](O)[C@H](O)[C@H]2O[C@H]2C[C@](C)(N)[C@H](O)[C@H](C)O2)Oc2ccc(cc2Cl)[C@H]1O [VANCOMYCIN]	µg/mL	=	1

###

Overview of recorded MIC50 for various molecules
- Tested on: Enterocloster clostridioformis
- assay-method-text: Antibacterial activity against Clostridium clostridioforme by CLSI M11-A6 agar dilution method
- Assay type: functional
experimental-readout: MIC50 (µg/mL)

molecule-smiles	reading-unit	reported
CN[C@H](CC(C)C)C(=O)N[C@H]1C(=O)N[C@@H](CC(N)=O)C(=O)N[C@H]2C(=O)N[C@H]3C(=O)N[C@H](C(=O)N[C@H](C(=O)O)c4cc(O)cc(O)c4-c4cc3ccc4O)[C@H](O)c3ccc(c(Cl)c3)Oc3cc2cc(c3O[C@@H]2O[C@H](CO)[C@@H](O)[C@H](O)[C@H]2O[C@H]2C[C@](C)(N)[C@H](O)[C@H](C)O2)Oc2ccc(cc2Cl)[C@H]1O	µg/mL	2
CC(=O)NC[C@H]1CN(c2ccc(N3CCOCC3)c(F)c2)C(=O)O1	µg/mL	4
CCCCCCCCCC(=O)N[C@@H](Cc1c[nH]c2ccccc12)C(=O)N[C@H](CC(N)=O)C(=O)N[C@@H](CC(=O)O)C(=O)N[C@@H]1C(=O)NCC(=O)N[C@@H](CCCN)C(=O)N[C@@H](CC(=O)O)C(=O)N[C@H](C)C(=O)N[C@@H](CC(=O)O)C(=O)NCC(=O)N[C@H](CO)C(=O)N[C@@H]([C@H](C)CC(=O)O)C(=O)N[C@@H](CC(=O)c2ccccc2N)C(=O)O[C@@H]1C	µg/mL	2

###

- Tested on: Bifidobacterium pseudolongum
- assay-method-text: Antibacterial activity against Bifidobacterium pseudolongum by CLSI M11-A6 agar dilution method
- Format: functional
experimental-readout: MIC50 (µg/mL)

compound	target-under-test	reading-unit	operator	reported
CCCCCCCCCC(=O)N[C@@H](Cc1c[nH]c2ccccc12)C(=O)N[C@H](CC(N)=O)C(=O)N[C@@H](CC(=O)O)C(=O)N[C@@H]1C(=O)NCC(=O)N[C@@H](CCCN)C(=O)N[C@@H](CC(=O)O)C(=O)N[C@H](C)C(=O)N[C@@H](CC(=O)O)C(=O)NCC(=O)N[C@H](CO)C(=O)N[C@@H]([C@H](C)CC(=O)O)C(=O)N[C@@H](CC(=O)c2ccccc2N)C(=O)O[C@@H]1C	Bifidobacterium pseudolongum	µg/mL	=	1
CCC[C@@H]1C[C@@H](C(=O)N[C@@H]([C@H]2O[C@H](SC)[C@H](O)[C@@H](O)[C@H]2O)[C@H](C)Cl)N(C)C1 [CLINDAMYCIN]	Bifidobacterium pseudolongum	µg/mL	≤	0.12
Cc1ncc([N+](=O)[O-])n1CCO [METRONIDAZOLE]	Bifidobacterium pseudolongum	µg/mL	=	1
CN[C@H](CC(C)C)C(=O)N[C@H]1C(=O)N[C@@H](CC(N)=O)C(=O)N[C@H]2C(=O)N[C@H]3C(=O)N[C@H](C(=O)N[C@H](C(=O)O)c4cc(O)cc(O)c4-c4cc3ccc4O)[C@H](O)c3ccc(c(Cl)c3)Oc3cc2cc(c3O[C@@H]2O[C@H](CO)[C@@H](O)[C@H](O)[C@H]2O[C@H]2C[C@](C)(N)[C@H](O)[C@H](C)O2)Oc2ccc(cc2Cl)[C@H]1O [VANCOMYCIN]	Bifidobacterium pseudolongum	µg/mL	=	0.5
CCCCCCCCCCNCCN[C@@]1(C)C[C@H](O[C@H]2[C@H](Oc3c4cc5cc3Oc3ccc(cc3Cl)[C@@H](O)[C@@H](NC(=O)[C@@H](CC(C)C)NC)C(=O)N[C@@H](CC(N)=O)C(=O)N[C@H]5C(=O)N[C@H]3C(=O)N[C@H](C(=O)N[C@H](C(=O)O)c5cc(O)c(CNCP(=O)(O)O)c(O)c5-c5cc3ccc5O)[C@H](O)c3ccc(c(Cl)c3)O4)O[C@H](CO)[C@@H](O)[C@@H]2O)O[C@@H](C)[C@H]1O [TELAVANCIN]	Bifidobacterium pseudolongum	µg/mL	≤	0.12
CC(=O)NC[C@H]1CN(c2ccc(N3CCOCC3)c(F)c2)C(=O)O1 [LINEZOLID]	Bifidobacterium pseudolongum	µg/mL	=	1

###

Listed here: items and their measured MIC90.
- Tested on: Phocaeicola vulgatus
- assay-method-text: Antibacterial activity against Bacteroides vulgatus by CLSI M11-A6 agar dilution method
- Assay type: functional
experimental-readout: MIC90

molecule-smiles	reported
CCCCCCCCCC(=O)N[C@@H](Cc1c[nH]c2ccccc12)C(=O)N[C@H](CC(N)=O)C(=O)N[C@@H](CC(=O)O)C(=O)N[C@@H]1C(=O)NCC(=O)N[C@@H](CCCN)C(=O)N[C@@H](CC(=O)O)C(=O)N[C@H](C)C(=O)N[C@@H](CC(=O)O)C(=O)NCC(=O)N[C@H](CO)C(=O)N[C@@H]([C@H](C)CC(=O)O)C(=O)N[C@@H](CC(=O)c2ccccc2N)C(=O)O[C@@H]1C	> 128 µg/mL
CCCCCCCCCCNCCN[C@@]1(C)C[C@H](O[C@H]2[C@H](Oc3c4cc5cc3Oc3ccc(cc3Cl)[C@@H](O)[C@@H](NC(=O)[C@@H](CC(C)C)NC)C(=O)N[C@@H](CC(N)=O)C(=O)N[C@H]5C(=O)N[C@H]3C(=O)N[C@H](C(=O)N[C@H](C(=O)O)c5cc(O)c(CNCP(=O)(O)O)c(O)c5-c5cc3ccc5O)[C@H](O)c3ccc(c(Cl)c3)O4)O[C@H](CO)[C@@H](O)[C@@H]2O)O[C@@H](C)[C@H]1O	> 64 µg/mL
CC(=O)NC[C@H]1CN(c2ccc(N3CCOCC3)c(F)c2)C(=O)O1	4 µg/mL

###

A collection of molecules and their measured MIC90
- System: Anaerococcus tetradius
- assay-method-text: Antibacterial activity against Anaerococcus tetradius by CLSI M11-A6 agar dilution method
- Assay type: functional

molecule-smiles	MIC90
CN[C@H](CC(C)C)C(=O)N[C@H]1C(=O)N[C@@H](CC(N)=O)C(=O)N[C@H]2C(=O)N[C@H]3C(=O)N[C@H](C(=O)N[C@H](C(=O)O)c4cc(O)cc(O)c4-c4cc3ccc4O)[C@H](O)c3ccc(c(Cl)c3)Oc3cc2cc(c3O[C@@H]2O[C@H](CO)[C@@H](O)[C@H](O)[C@H]2O[C@H]2C[C@](C)(N)[C@H](O)[C@H](C)O2)Oc2ccc(cc2Cl)[C@H]1O	1 µg/mL
Cc1ncc([N+](=O)[O-])n1CCO	2 µg/mL
CCC[C@@H]1C[C@@H](C(=O)N[C@@H]([C@H]2O[C@H](SC)[C@H](O)[C@@H](O)[C@H]2O)[C@H](C)Cl)N(C)C1	> 128 µg/mL
CCCCCCCCCC(=O)N[C@@H](Cc1c[nH]c2ccccc12)C(=O)N[C@H](CC(N)=O)C(=O)N[C@@H](CC(=O)O)C(=O)N[C@@H]1C(=O)NCC(=O)N[C@@H](CCCN)C(=O)N[C@@H](CC(=O)O)C(=O)N[C@H](C)C(=O)N[C@@H](CC(=O)O)C(=O)NCC(=O)N[C@H](CO)C(=O)N[C@@H]([C@H](C)CC(=O)O)C(=O)N[C@@H](CC(=O)c2ccccc2N)C(=O)O[C@@H]1C	4 µg/mL
CCCCCCCCCCNCCN[C@@]1(C)C[C@H](O[C@H]2[C@H](Oc3c4cc5cc3Oc3ccc(cc3Cl)[C@@H](O)[C@@H](NC(=O)[C@@H](CC(C)C)NC)C(=O)N[C@@H](CC(N)=O)C(=O)N[C@H]5C(=O)N[C@H]3C(=O)N[C@H](C(=O)N[C@H](C(=O)O)c5cc(O)c(CNCP(=O)(O)O)c(O)c5-c5cc3ccc5O)[C@H](O)c3ccc(c(Cl)c3)O4)O[C@H](CO)[C@@H](O)[C@@H]2O)O[C@@H](C)[C@H]1O	0.25 µg/mL
